system: HeLa cells; assay: Compound screen by flow cytometry: HeLa cell count as surrogate readout of cell viability (z-scoreHeLa); type: cell-based, human; conditions: PKIS compounds raw data; replicate 2; HeLa cell count
Assign YES to entries whose cell count rep 2 meets or exceeds 6000; assign NO to the rest.

Cc1cccc(Cn2ccn3c(=O)cc(N4CCOCC4)nc23)c1 [GSK2297542A]
YES

Check this compound for cell count rep 2 at or above 6000: N#Cc1ccc(CCNc2nccc(-c3cccc(CN4CCNCC4)c3)n2)cc1 [GSK2137462A]
YES

Check this compound for cell count rep 2 at or above 6000: CCCN(CCS(C)(=O)=O)Cc1ccc(-c2ccc3ncnc(Nc4ccc(OCc5cccc(F)c5)c(Cl)c4)c3c2)o1 [GW621823A]
NO

Check this compound for cell count rep 2 at or above 6000: COC(=O)c1cccc(NC(=O)NC2CCN(c3ccnc(Nc4ccc(OC)cc4)n3)C2)c1 (centres unmarked) [GSK1379746A]
NO

###

system: HeLa cells; experiment: Compound screen by flow cytometry: HeLa cell count as surrogate readout of cell viability (z-scoreHeLa); assay type: cell-based, human; settings: PKIS compound screen, HeLa cell count, mean of 3 replicates
Form field: z-scoreHeLa mean (one value per entry).
Output spec: single numeric token, no unit.

As a guide, the following entries are already answered.
Cc1nn2c(=O)cc(N3CCOCC3)nc2n1Cc1cccc(Cl)c1Cl [GSK2342769A]
0.21
O=c1cc(N2CCOCC2)nc2n(Cc3cccc4ccccc34)ccn12 [GSK2333389A]
-0.17
COc1ccc(COc2ccc(Cc3cnc(N)nc3N)cc2OC)cc1 [GW632580X]
-0.0017
CCS(=O)(=O)c1ccc(OC)c(Nc2ncc(-c3cccc(-c4ccccc4F)c3)o2)c1 [GW678313X]
0.12
COc1cc(Nc2nccc(N3CCC(NC(=O)C(C)c4ccc(Cl)cc4)C3)n2)cc(OC)c1OC (stereo not shown) [GSK1379757A]
0.57

The value of z-scoreHeLa mean measured for the compound c1ccc(Oc2ccc(Nc3ccnc4cc(-c5ccc(CNCCN6CCOCC6)o5)ccc34)cc2)nc1 [GW567145X] turned out to be -0.58

The value of z-scoreHeLa mean measured for the compound Cc1cn2c(=O)cc(N3CCOCC3)nc2n1Cc1cccc(Cl)c1Cl [GSK2334006A] turned out to be 1.52

###

Tested on: HeLa cells
Test: Compound screen by flow cytometry: HeLa cell count as surrogate readout of cell viability (z-scoreHeLa)
Format: cell-based, human
Conditions: PKIS compounds raw data; replicate 1; HeLa cell count
Method: The cells were resuspended in cell culture medium without antibiotics, seeded with 10,000 cells/well into Costar flat-bottom 96-well plates (Corning, Amsterdam, the Netherlands), and were incubated overnight at 37°C/5% CO2. […] The calculated mean MOI throughout all experiments was 6.8 ± 4.6 (mean ± SD). […] HeLa cells were harvested by trypsinization and fixed with 1% paraformaldehyde. Samples were measured on a FACSLyric with HTS extension (BD Biosciences). […]
Please respond with Condition met when measured cell count rep 1 is strictly beneath 5000, and with Condition not met in all other cases.

Consider the following illustrative entries.
Cn1cc(-c2ccc3c(c2)CCN3C(=O)Cc2ccccc2Cl)c2c(N)ncnc21 [GSK2608885A]
Condition not met
COC(=O)c1cccc(NC(=O)NC2CCN(c3ccnc(Nc4ccc(OC)cc4)n3)C2)c1 (stereo not drawn) [GSK1379746A]
Condition met
Cl.Cl.Cl.Fc1ccc(-c2ncn(C3CCNCC3)c2-c2ccnc(Nc3ccccc3)n2)cc1
Condition met

Shift focus to the following entry.
Is 5000 strictly greater than the compound's reported cell count rep 1? compound: Fc1cc(Cl)ccc1Nc1ccnc2cc(-c3ccc(CN4CCOCC4)o3)ccc12 [GW560109X]
Condition not met
